Measurement Notes: soluble on expression in E. coli; label from the status in PepcDB or PDB records
Observable: soluble on expression in E. coli

Record excerpt, results attached:
MAAHSIFTTTSTTNSFLYPISSSSSSPNINSSFLGVSLNVNAKFGQSLTLYAVTTPKPLTVFAATKKAVAVLKGNSNVEGVVTLSQDDDGPTTVNVRITGLAPGLHGFHLHEYGDTTNGCMSTGAHFNPNKLTHGAPGDEIRHAGDLGNIVANADGVAEVTLVDNQIPLTGPNSVVGRALVVHELEDDLGKGGHELSLTTGNAGGRLACGVVGLTPI; soluble
TNAKASKRVYITFTGYDKKPSIDNLKKLDMSITSNPSKCTHLIAPRILRTSKFLCSIPYGPCVVTMDWINSCLKTHEIVDEEPYLLNDPEKELELGCTLESALKRARAQGPSLLEDYVVYLTSKTVAPENVPAVISIVKSNGGVCSTLNVYNKRLARHLEDGNVVLITCNEDSHIWTNFLDNASQNKTIFLQNYDWLIKTVLRQEIDVNDRIADEFARAV; soluble
MRPIEEFVYVGNQVIVPDQASLMRCYYPIIGGEGYALYQYFVAFYDNGNHRHKFATILNHLNFGMQPLQESLAVLTAVDLLAFYHSPQGIYVVELKSPLSIEQFLKHAVYSSLLEQKIGEPAVDALKPTSLHGLQDLSKRFSDVFTDERLAQKSVSEIKPKNSFDLISFRNRMQADGLVFTDEKTDVPEIYKLSETYDMNWYDTYLLSKKTAVNHRIIVKRMQVQLEQAQAQKLGGDSALTETEKKILKAVKSGKPVDYLQSAKGPGGTVTNSEKKILTDLAQRGFMDEVINLMVAYSLGRTRSTNVNREYISKVANDFDFKKIVTAEQGLLALRSGYDKKSQRAKDDSKKKTNVPSWSDPDYDNQTNQADQAKLDEIRRRALAKLEKGKE; soluble
MGSDKIHHHHHHMKILAFGEVLLRMTVPEHLMLTQTDELRMSTVGTGVNLLSSLTHFGYRTRLLSRLPDNALGQRAAGELRRYGIQDDYVTFGGQHMGAYFVELGYGSRPERVTYQDRLSSAFCQQPPDDQEIAAALVGCQFVHICGITLSLTAPVRQAALRLAQQAHANGQRVCFDFNYRQQLNTGVAHETLKARYQEILPYVDIVFGSKRDLTALLDYPDDEDRTQSANRESEAALYEQFVRDYHIDYFAGSYRYQIGQQKWFAGFSYQHQQLVVGKARPLMILDRIGSGDAFASGIITALIEGWSLQKTTDFAIATAILAQATVNDAPEFTKEMVLADMASDGQLELIR; not soluble

Lab note: next sequence to report on.
soluble on expression in E. coli in this record for MEILRRECGAVEENAYIVKLSSGIDFIIDPGFSSSEWVLENAKNPKAILITHGHYDHVWDGAQLSKLLKNTPIYAPKDDVFMLENDIFHLGMPVFSPNFSVPCNKGCTTLEIANTTIKYWHFPGHTPGCSIIEIEGVIFSGDFIFYRSIGRYDFPYSNEKDMKESLLRFQNLDFPKDIEIYPGHGDKTSFFAEREHSKIWVSRMALEHHHHHH : not soluble

====

Measurement Notes: soluble on expression in E. coli; label from the status in PepcDB or PDB records
Observable: soluble on expression in E. coli

Recorded results for 6 sequences are shown here.
MGSDKIHHHHHHMTSQKYQSKTLKIAVVGDIHDQWEVEDGMALKHLGVDLVLFVGDFGNESVEVVRAIASLNIPKAAVMGNHDAWYTATEWGRKKCPYDRTKEDWVQEQLDLLGSAHVGYGKLDFPEWNLTVVGGRPFSWGGHEWRFADICKDRYGVTTLEESAQRIFASVKSAACETIIFLGHNGPSGLGDRPEDPCGKDWHPIGGDFGDPDLAEAISLTMTTGKQIALVTFGHMHHSLRHTKKELRKPIFKSPEGIVYLNAASVPRIVEGESGKLRNFSLVSLEAGEVTQASLIWVGEDFQVAKEEIFYERSTSVVPSV; not soluble
MEFKDFPLKPEILEALHGRGLTTPTPIQAAALPLALEGKDLIGQARTGTGKTLAFALPIAERLAPSQERGRKPRALVLTPTRELALQVASELTAVAPHLKVVAVYGGTGYGKQKEALLRGADAVVATPGRALDYLRQGVLDLSRVEVAVLDEADEMLSMGFEEEVEALLSATPPSRQTLLFSATLPSWAKRLAERYMKNPVLINVIK; soluble
MLNVGDSVQIAGCSTKKRLLETSSGCDSFDTLIGGALVNSSIVLIDEYRSRCYGSYLIRSFLAEGLHHGHRCFIADPTEDPKEINLIPSRRTSTDMQNQEIPNSLPAENENSMKIAWRYGNVKQVSSSLGPLSNENQYDFTKHVENPNVDVYAEKVFTLKGIYETLCQIVKENEAHTKSGGRGGPKKNLLRVVLKNIDMEICEDYKFLGRFLCCLRSLARSSYMIVYITANSFRVPKPTWRILESAADTHIQLMPFDENEKKMFKHLGTAHGYFHLKSLPRLMSVGTHTPPILDLIFEASSRKGFQIRVMHLPPAFDEPAPGHQNTPSCQNIDF; soluble
MAHHHHHHMIDLTGKTSLITGASSGIGSAIARLLHKLGSKVIISGSNEEKLKSLGNALKDNYTIEVCNLANKEECSNLISKTSNLDILVCNAGITSDTLAIRMKDQDFDKVIDINLKANFILNREAIKKMIQKRYGRIINISSIVGIAGNPGQANYCASKAGLIGMTKSLSYEVATRGITVNAVAPGFIKSDMTDKLNEKQREAIVQKIPLGTYGIPEDVAYAVAFLASNNASYITGQTLHVNGGMLMV; soluble
ASDDELFSMLDQRFGGGEDLLMSGDNGMTEEKLRRYLKRTVTELDSVTARLREVEHRAGE; soluble
MAELACFVSFSLTEDKVVWYPINKKAVQTMLCAKVEKDQRSNYYDTILYGVAPPPEFRNRFKTNERYGLDYESDQYTELVNLLADTLNMVSMPTEKFQFDIVKTVVQVRHLENLLCRIKDVNDILNANVKLRVKAVMIACNLVNETETTPLTESNDIVYQDSYFTITKLDYSNHKLLPLMADEYKITINTKTDIPDRNQTAFAAYIRYNFNKFAAISHGKRHWRLVLHSQLMSHAERLDRKIKSDKKHGRQFSYDDGDMAFVHPGWKTCIGQLCGGTTFEVAKTSLYSIKPSKTVRTATNKIESDLISMVGN; soluble

Just so you know, measured soluble on expression in E. coli for MLQKDPCLDDILENSEKLENNSNKKNIDSIDTIKLSDIIEKMIEINSIVRIEKIFEEKIVSQNPVVNVVVNDGSARGLLSLWSEQISLLNELNEGDAILIENAHAPKKYKDRIHLALSKSGKISKIESDLPTIDELLKKSSAQRNDFSRKSISELKEGIGAELRGLIVAIHSKEPYFPVCDKCNKKMTLKKGYAVCKCGNKVDEEDENLKWLFLCTCTLDDGSGTIRVTLNNNTNYLDLEELKKIIIDDEEILDVLNNKLLGLDILTSGFTIYDEYLKDTAFRCNNWNKIDIMEEFNKKLKGLEHHHHHH came out at soluble

// sample GMRNMQEKGVSEKEILEELKKYRSLDLKYEDGNIFGSMCSNVLPITRKIVDIFLETNLGDPGLFKGTKLLEEKAVALLGSLLNNKDAYGHIVSGGTEANLMALRCIKNIWREKRRKGLSKNEHPKIIVPITAHFSFEKGREMMDLEYIYAPIKEDYTIDEKFVKDAVEDYDVDGIIGIAGTTELGTIDNIEELSKIAKENNIYIHVDAAFGGLVIPFLDDKYKKKGVNYKFDFSLGVDSITIDPHKMGHCPIPSGGILFKDIGYKRYLDVDAPYLTETRQATILGTRVGFGGACTYAVLRYLGREGQRKIVNECMENTLYLYKKLKENNFKPVIEPILNIVAIEDEDYKEVCKKLRDRGIYVSVCNCVKALRIVVMPHIKREHIDNFIEILNSIKRD , its soluble on expression in E. coli was soluble

====

Measurement Notes: soluble on expression in E. coli; label from the status in PepcDB or PDB records
Observable: soluble on expression in E. coli

MGSDKIHHHHHHMKFCIIGYPVRHSISPRLYNEYFKRAGMNHSYGMEEIPPESFDTEIRRILEEYDGFNATIPHKERVMRYVEPSEDAQRIKAVNCVFRGKGYNTDWVGVVKSLEGVEVKEPVVVVGAGGAARAVIYALLQMGVKDIWVVNRTIERAKALDFPVKIFSLDQLDEVVKKAKSLFNTTSVGMKGEELPVSDDSLKNLSLVYDVIYFDTPLVVKARKLGVKHIIKGNLMFYYQAMENLKIWGIYDEEVFKEVFGEVLK; not soluble
MMRGGMGNMQKMLKQMQKMQKEMQKAQEELAEKTVEGTAGGGMVTVVANGHKQILEVKIKEEVVDPDDIEMLQDLILAATNDALKKADELANEMMGQFTKGLNIPGLF; not soluble

====

Measurement Notes: soluble on expression in E. coli; label from the status in PepcDB or PDB records
Observable: soluble on expression in E. coli

MKLEGVWKVFGNVVAVRDVNLYIEDKEFVSILGPSGSGKTTLLYLIAGIYKPSRGRIYFNDVDVTDLPPNKRNIGLVFQNYALYPHMTVYENIAFPLRLRNFGEPAIKEKVLSVAKLLGIEGLLDRYPAQLSGGQQQRVALARALVKEPEVLLLDEPLSNLDALLRIKIRSELKKLQKELGITAIYVTHDQSEALAMADRIAIIASGVIQQVGKPWDVYYKPRNVFVASFIGTPPANLVSVPLDSSRRCLLLPGGGRYCPPRRIAEKLAAVKTNSVILGFRPEVAVLSESPLGDYVSMEAEVYTVETLGRENIVTLLVNGSQVKVIVPPVVEPRPGSRIFINIEEDKVMYFDPETEINVEYLEVPGMEEAIAESAGTLRKQEMEEEWD; soluble
MSLAQAMKIAIVDDEQDMRQSISQWLALSGYDTETFASAEEALKVLGSEYPGIVISDIKMPGMDGMQFLKKLMGADSSLPVIMITGHGDVPMAVEAMRVGAFDFLEKPFNPDRMSDLAKRASNARRLTLDNRALRRELSDGGQIMKKLIGTSPVMERLREDILDLGQADGHVLIDGETGTGKTLVAHALHAVGSRAGKKFVLVSCSALEEEALAKRLFGPMIPEDAQLPAIEEARGGTLVLEDVESLSDALQAKLLSVMNQQGTPAETRIVAISNLQEAGKTSEDVLRPDLFYRLAALRLTMPPLRQRGEDILTLFTRLSEQFAEEYGCDAPQVSAQEAAQLLQAPWPGNVRQLINIAERAVLQARRGSGTIASLLMSDHEDEGHHHHHH; soluble
